Known activation at 1 µM of a selection of molecules
measured.target: 5-HT2B receptor (Homo sapiens)
Construct: host or cells: unnamed cell lines
Sequence (P41595 whole entry): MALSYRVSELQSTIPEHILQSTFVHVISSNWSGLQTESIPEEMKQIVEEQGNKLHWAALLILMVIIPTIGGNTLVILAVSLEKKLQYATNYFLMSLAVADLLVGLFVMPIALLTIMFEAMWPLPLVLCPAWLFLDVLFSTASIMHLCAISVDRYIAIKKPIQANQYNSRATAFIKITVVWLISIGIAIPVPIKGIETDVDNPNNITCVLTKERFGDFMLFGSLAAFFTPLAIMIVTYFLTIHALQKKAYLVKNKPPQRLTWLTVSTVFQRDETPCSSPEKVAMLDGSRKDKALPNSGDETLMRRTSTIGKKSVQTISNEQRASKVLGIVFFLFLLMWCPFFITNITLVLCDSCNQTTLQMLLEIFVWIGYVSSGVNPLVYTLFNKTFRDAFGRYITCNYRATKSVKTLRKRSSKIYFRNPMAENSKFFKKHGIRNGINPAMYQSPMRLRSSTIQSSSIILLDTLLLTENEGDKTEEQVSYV
test.name: Calcium mobilization assay, agonist format, 5-HT2B receptor
Format: cell-based
particulars: agonist mode, % activity relative to MAX control ligand (5-HT positive control), read-out: 5-HT2B agonist efficacy @ 1 μM

# molecule, unit.label, activation at 1 µM
rows = [
    ("CN(CCO)CCn1ccc2cc(F)ccc21", "%", -1.4),
    ("CN(CCn1ccc2cc(F)c(F)cc21)CCS(C)(=O)=O", "%", -1.3),
    ("CN(CCc1c[nH]c2ccc(F)cc12)CCS(C)(=O)=O", "%", -0.5),
    ("CC1(O)CCN(CCc2c[nH]c3cc(F)ccc23)C1 (stereo not shown)", "%", -1.1),
    ("CN(CCO)CCn1ccc2ccc(F)cc21", "%", 0.2),
    ("CC1(O)CCN(CCc2c[nH]c3cc(F)c(F)cc23)C1 (stereo not shown)", "%", -1),
    ("CC1(O)CCN(CCn2ccc3ccc(F)cc32)C1 (stereo not shown)", "%", -1.3),
]

###

measured.target: 5-HT2A receptor (Homo sapiens, UniProt P28223)
Construct: host or cells: unnamed cell lines
Sequence (P28223 whole entry): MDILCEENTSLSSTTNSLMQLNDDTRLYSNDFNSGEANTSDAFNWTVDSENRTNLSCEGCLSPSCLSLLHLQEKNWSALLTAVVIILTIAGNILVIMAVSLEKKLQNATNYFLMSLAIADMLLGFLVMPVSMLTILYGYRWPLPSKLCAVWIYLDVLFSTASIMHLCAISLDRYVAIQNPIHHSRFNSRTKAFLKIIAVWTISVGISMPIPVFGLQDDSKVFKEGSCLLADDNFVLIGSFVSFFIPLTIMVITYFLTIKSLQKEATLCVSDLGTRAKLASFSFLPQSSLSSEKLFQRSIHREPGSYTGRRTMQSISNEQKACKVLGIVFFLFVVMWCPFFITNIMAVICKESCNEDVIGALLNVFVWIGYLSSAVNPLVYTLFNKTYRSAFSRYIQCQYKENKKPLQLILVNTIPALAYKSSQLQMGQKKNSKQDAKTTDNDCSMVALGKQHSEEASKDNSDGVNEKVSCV
test.name: Calcium mobilization assay, agonist format, 5-HT2A receptor
Format: cell-based
particulars: agonist mode, % activity relative to MAX control ligand (5-HT positive control), read-out: 5-HT2A agonist efficacy @ 1 μM
experimental.readout: activation at 1 µM (%)

# compound, experimental.readout, observed.value
measured = [
    ("CN(CCO)CCn1ccc2ccc(F)cc21", "activation at 1 µM", 8.3),
    ("CC1(O)CCN(CCn2ccc3cc(F)ccc32)C1 (stereo not drawn)", "activation at 1 µM", -0.3),
    ("COc1ccc2c3c([nH]c2c1)CCN(C)CC3 [TBG, reference compound]", "activation at 1 µM", 18.2),
    ("CN(CCO)CCc1c[nH]c2ccc(F)cc12", "activation at 1 µM", 47.1),
    ("CN(CCn1ccc2cc(F)c(F)cc21)CCS(C)(=O)=O", "activation at 1 µM", -0.5),
    ("CC1(O)CCN(CCc2c[nH]c3ccc(F)cc23)C1 (stereo not drawn)", "activation at 1 µM", 7.5),
    ("CN(CCc1c[nH]c2ccc(F)cc12)CCS(C)(=O)=O", "activation at 1 µM", 27.3),
    ("OC1CCN(CCn2ccc3ccc(F)cc32)C1 (stereo not drawn)", "activation at 1 µM", 2.5),
    ("CN(CCn1ccc2ccc(F)cc21)CCS(C)(=O)=O", "activation at 1 µM", -1.2),
    ("OC1CCN(CCn2ccc3cc(F)ccc32)C1 (stereo not drawn)", "activation at 1 µM", -0.2),
    ("CN(CCO)CCn1ccc2cc(F)ccc21", "activation at 1 µM", -0.2),
    ("COc1ccc2c3c([nH]c2c1)CCNCC3 [reference compound]", "activation at 1 µM", 71.7),
]

###

measured.target: 5-HT2B receptor (Homo sapiens)
Construct: host or cells: unnamed cell lines
test.name: Calcium mobilization assay, agonist format, 5-HT2B receptor
Format: cell-based
particulars: agonist mode, % activity relative to MAX control ligand (5-HT positive control), read-out: 5-HT2B agonist efficacy @ 1 μM
Experimental: • Protocol: in vitro testing at select 5-hydroxytryptamine (5-HT; serotonin) receptors was conducted. Assay Design: Calcium Mobilization • 1. Cell lines were expanded from freezer stocks according to standard procedures. • 2. […] • 1. […] Compound agonist activity was measured on a FLIPR Tetra (MDS). Calcium mobilization was monitored for 2 minutes and 10 μL 4× sample in HBSS/20 mM Hepes was added to the cells 5 seconds into the assay. […]

# compound, unit.label, activation at 1 µM
measured = [
    ("CN(CCO)CCc1c[nH]c2ccc(F)cc12", "%", 1.2),
    ("OC1CCN(CCn2ccc3ccc(F)cc32)C1 (stereo not shown)", "%", -2.8),
    ("COc1ccc2c3c([nH]c2c1)CCNCC3 [reference compound]", "%", -0.8),
    ("OC1CCN(CCn2ccc3cc(F)ccc32)C1 (stereo not shown)", "%", -1.2),
    ("CN(CCn1ccc2cc(F)ccc21)CCS(C)(=O)=O", "%", -2.7),
    ("CC1(O)CCN(CCn2ccc3cc(F)c(F)cc32)C1 (stereo not shown)", "%", -2.5),
    ("CN(CCO)CCn1ccc2cc(F)c(F)cc21", "%", 0.1),
    ("OC1CCN(CCc2c[nH]c3ccc(F)cc23)C1 (stereo not shown)", "%", -0.7),
    ("OC1CCN(CCn2ccc3cc(F)c(F)cc32)C1 (stereo not shown)", "%", -0.7),
    ("CC1(O)CCN(CCc2c[nH]c3ccc(F)cc23)C1 (stereo not shown)", "%", -1.5),
    ("CN(CCn1ccc2ccc(F)cc21)CCS(C)(=O)=O", "%", -1.3),
    ("COc1ccc2c3c([nH]c2c1)CCN(C)CC3 [TBG, reference compound]", "%", -2.2),
    ("CC1(O)CCN(CCn2ccc3cc(F)ccc32)C1 (stereo not shown)", "%", -1.1),
]

Ref: patent US20250136548A1
